Entry source: BigSolDB 2.1

details: in 2-butanone, 298.15 K

{"Line Notation": "O=C(C(=O)c1ccccc1)c1ccccc1", "solubility (mole fraction)": 0.184}

###

conditions: in propylene carbonate, 298.15 K
Property: solubility (mole fraction)

{"Line Notation": "O=C(C(=O)c1ccccc1)c1ccccc1", "Recorded Measurement": 0.094}

###

conditions: in diethyl ether, 298.15 K
Property: solubility (mole fraction)

{"Line Notation": "O=C(C(=O)c1ccccc1)c1ccccc1", "Property": "solubility (mole fraction)", "Recorded Measurement": 0.0674}

###

settings: in chlorobenzene, 298.15 K

{"Line Notation": "O=C(C(=O)c1ccccc1)c1ccccc1", "solubility (mole fraction)": 0.201}

###

details: in n-decane, 298.15 K

{"Line Notation": "O=C(C(=O)c1ccccc1)c1ccccc1", "solubility (mole fraction)": 0.00855}

###

conditions: in acetonitrile, 298.15 K

{"Line Notation": "O=C(C(=O)c1ccccc1)c1ccccc1", "solubility (mole fraction)": 0.0635}

###

conditions: in methyl acetate, 298.15 K

{"Line Notation": "O=C(C(=O)c1ccccc1)c1ccccc1", "solubility (mole fraction)": 0.152}

###

settings: in butyronitrile, 298.15 K

{"Line Notation": "O=C(C(=O)c1ccccc1)c1ccccc1", "solubility (mole fraction)": 0.151}

###

conditions: in tert-butanol, 298.15 K
Property: solubility (mole fraction)

{"Line Notation": "O=C(C(=O)c1ccccc1)c1ccccc1", "Recorded Measurement": 0.0106}

###

conditions: in 2-methyl-1-pentanol, 298.15 K
Property: solubility (mole fraction)

{"Line Notation": "O=C(C(=O)c1ccccc1)c1ccccc1", "Recorded Measurement": 0.0139}

###

settings: in 2,2,2-trifluoroethanol, 298.15 K
Property: solubility (mole fraction)

{"Line Notation": "O=C(C(=O)c1ccccc1)c1ccccc1", "Recorded Measurement": 0.0352}

###

conditions: in cyclohexanone, 298.15 K

{"Line Notation": "O=C(C(=O)c1ccccc1)c1ccccc1", "solubility (mole fraction)": 0.241}

###

details: in diisopropyl ether, 298.15 K

{"Line Notation": "O=C(C(=O)c1ccccc1)c1ccccc1", "solubility (mole fraction)": 0.0309}

###

details: in n-hexadecane, 298.15 K

{"Line Notation": "O=C(C(=O)c1ccccc1)c1ccccc1", "solubility (mole fraction)": 0.0118}
